# experimental-protocol: Half life in human liver microsomes in presence of NADPH
# Format: ADME, microsome
Mark criterion not met for half-life values under 30 min, and criterion met for everything at or above.

[[record]]
smiles_input = "C=C[C@@H]1C[C@]1(NC(=O)[C@@H]1C[C@]2(OC)CN1C(=O)[C@H](C(C)(C)C)NC(=O)OCC(C)(C)CCCCc1cc3cc2ccc3cc1OC)C(=O)NS(=O)(=O)C1CC1"
qualitative_label = "criterion met"

[[record]]
smiles_input = "C=C[C@@H]1C[C@]1(NC(=O)[C@@H]1C[C@]2(OC)CN1C(=O)[C@H](C(C)(C)C)NC(=O)OCCCCCCc1cc3cc2ccc3cc1OC)C(=O)NS(=O)(=O)C1CC1"
qualitative_label = "criterion not met"

[[record]]
smiles_input = "COC(=O)N1CCCOc2cc3cc(ccc3cc2OC)[C@]2(OC)C[C@@H](C(=O)N[C@]3(C(=O)NS(=O)(=O)C4CC4)C[C@H]3C3CC3)N(C2)C(=O)[C@H](C(C)(C)C)NC(=O)OCC1"
qualitative_label = "criterion met"

[[record]]
smiles_input = "C=C[C@@H]1C[C@]1(NC(=O)[C@@H]1C[C@]2(OC)CN1C(=O)[C@H](C(C)(C)C)NC(=O)OCCCCCCCCc1cc3cc2ccc3cc1OC)C(=O)NS(=O)(=O)C1CC1"
qualitative_label = "criterion met"

[[record]]
smiles_input = "CO[C@@]12C[C@@H](C(=O)N[C@]3(C(=O)NS(=O)(=O)C4CC4)C[C@H]3C3CC3)N(C1)C(=O)[C@H](C(C)(C)C)NC(=O)OCCCCCOc1ccc3ccc2cc3c1"
qualitative_label = "criterion met"

[[record]]
smiles_input = "C=C[C@@H]1C[C@]1(NC(=O)[C@@H]1C[C@]2(OC)CN1C(=O)[C@H](C(C)(C)C)NC(=O)OCCCCCOc1ccc3ccc2cc3c1)C(=O)NS(=O)(=O)C1CC1"
qualitative_label = "criterion not met"

[[record]]
smiles_input = "COc1cc2ccc3cc2cc1CCCC(C)(C)CCOC(=O)N[C@@H](C(C)(C)C)C(=O)N1C[C@@]3(OC)C[C@H]1C(=O)N[C@]1(C(=O)NS(=O)(=O)C2CC2)C[C@H]1C1CC1"
qualitative_label = "criterion met"

